Origin of measurements: patent US11299501B2

Target: human TLR9 (Homo sapiens)
Sequence (Q9NR96 26-1032): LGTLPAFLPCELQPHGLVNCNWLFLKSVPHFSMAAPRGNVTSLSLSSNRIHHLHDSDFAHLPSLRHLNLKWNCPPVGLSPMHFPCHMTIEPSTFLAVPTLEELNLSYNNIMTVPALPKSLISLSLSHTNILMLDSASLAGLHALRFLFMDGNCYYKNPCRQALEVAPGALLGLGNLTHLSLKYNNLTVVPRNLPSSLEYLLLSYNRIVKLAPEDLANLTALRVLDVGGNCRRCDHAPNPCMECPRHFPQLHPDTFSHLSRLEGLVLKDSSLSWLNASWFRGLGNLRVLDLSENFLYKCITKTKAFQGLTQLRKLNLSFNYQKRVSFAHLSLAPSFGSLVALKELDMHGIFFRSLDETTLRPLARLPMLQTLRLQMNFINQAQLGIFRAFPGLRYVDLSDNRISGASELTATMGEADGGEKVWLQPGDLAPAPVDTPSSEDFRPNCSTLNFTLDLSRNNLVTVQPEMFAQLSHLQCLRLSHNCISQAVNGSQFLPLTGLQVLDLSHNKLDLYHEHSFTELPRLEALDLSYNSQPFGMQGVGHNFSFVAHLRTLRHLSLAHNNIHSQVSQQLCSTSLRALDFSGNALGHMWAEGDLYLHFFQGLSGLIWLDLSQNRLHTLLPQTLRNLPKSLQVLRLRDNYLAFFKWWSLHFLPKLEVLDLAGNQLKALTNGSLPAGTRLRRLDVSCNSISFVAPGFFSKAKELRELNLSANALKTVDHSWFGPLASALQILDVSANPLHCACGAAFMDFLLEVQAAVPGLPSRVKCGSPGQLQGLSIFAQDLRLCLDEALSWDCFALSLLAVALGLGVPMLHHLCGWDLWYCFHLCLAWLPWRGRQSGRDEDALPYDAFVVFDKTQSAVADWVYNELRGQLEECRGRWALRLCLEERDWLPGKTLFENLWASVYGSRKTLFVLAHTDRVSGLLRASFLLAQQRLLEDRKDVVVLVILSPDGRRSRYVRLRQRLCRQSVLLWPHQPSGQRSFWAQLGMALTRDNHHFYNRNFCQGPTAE
Experiment: TLR9 inhibition reporter assay (HEK-Blue SEAP)
Settings: cells overexpressing human TLR9, SEAP reporter, stimulated with ODN2006 5 nM, 22 hour incubation
pIC50: −log10 of the molar value.
pIC50: recorded values

Study these solved cases before continuing.
CCc1c(-c2ccc(OC)c(OC)c2)[nH]c2cnc(-c3nnc([C@H]4CCNC4)o3)nc12 [Example 44]    4.30 to 6.00
CCc1c(-c2ccc(OC)c(OC)c2)[nH]c2cnc(-c3nnc(CCCN(C)C)o3)nc12 [Example 37]    4.30 to 6.00
CCc1c(-c2ccc(OC)c(OC)c2)[nH]c2cnc(-c3nnc(C[C@H]4CCCN4)o3)nc12 [Example 47]    4.30 to 6.00
CCc1c(-c2ccc(OC)c(OC)c2)[nH]c2cnc(C(=O)NC3CCN(C(C)C)CC3)nc12 [Example 56]    < 4.30

Lab book: pIC50 of COc1ccc(-c2[nH]c3cnc(C4CCN(C(=O)CN(C)C)CC4)nc3c2C(C)C)cc1OC [Example 18] noted as 6.00 to 7.00

###

Molecular target: human TLR8 (Homo sapiens)
Sequence (Q9NR97 27-1041): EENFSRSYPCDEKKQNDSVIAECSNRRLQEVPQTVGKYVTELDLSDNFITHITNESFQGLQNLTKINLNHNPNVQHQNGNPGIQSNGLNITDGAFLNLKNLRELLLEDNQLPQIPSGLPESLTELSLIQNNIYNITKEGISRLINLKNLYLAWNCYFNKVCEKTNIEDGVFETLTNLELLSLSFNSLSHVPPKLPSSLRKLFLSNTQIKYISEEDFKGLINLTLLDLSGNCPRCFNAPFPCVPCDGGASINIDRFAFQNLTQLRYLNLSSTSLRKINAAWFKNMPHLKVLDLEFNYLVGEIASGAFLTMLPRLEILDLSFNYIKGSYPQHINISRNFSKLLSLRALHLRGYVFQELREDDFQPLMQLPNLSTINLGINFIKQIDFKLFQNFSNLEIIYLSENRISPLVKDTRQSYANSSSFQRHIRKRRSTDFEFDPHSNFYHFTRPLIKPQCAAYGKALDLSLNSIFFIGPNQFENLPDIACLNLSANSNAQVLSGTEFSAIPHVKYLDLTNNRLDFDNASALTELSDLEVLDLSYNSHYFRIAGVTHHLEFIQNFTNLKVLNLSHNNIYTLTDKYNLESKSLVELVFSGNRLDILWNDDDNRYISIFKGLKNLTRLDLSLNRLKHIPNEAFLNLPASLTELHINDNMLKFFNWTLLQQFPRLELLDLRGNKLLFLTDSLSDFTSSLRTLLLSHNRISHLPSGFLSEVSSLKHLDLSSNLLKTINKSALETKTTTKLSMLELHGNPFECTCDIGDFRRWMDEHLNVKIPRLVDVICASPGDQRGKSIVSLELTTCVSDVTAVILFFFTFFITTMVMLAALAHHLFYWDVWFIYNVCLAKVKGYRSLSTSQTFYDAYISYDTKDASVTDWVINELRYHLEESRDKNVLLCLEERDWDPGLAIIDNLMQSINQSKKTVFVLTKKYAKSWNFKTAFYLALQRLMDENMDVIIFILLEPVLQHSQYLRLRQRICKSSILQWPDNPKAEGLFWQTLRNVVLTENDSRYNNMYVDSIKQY
Assay: TLR8 inhibition reporter assay (HEK-Blue SEAP)
Details: cells overexpressing human TLR8, SEAP reporter, stimulated with R848 15.9 μM, 22 hour incubation
PARAMETER_MEASURED: IC50

CCc1c(-c2ccnc(C)c2)[nH]c2cnc(C3CCN(C4CCN(C(C)C)CC4)CC3)nc12    < 100 nM
CCc1c(-c2ccc(OC)c(OC)c2)[nH]c2cnc(-c3nnc(C[C@@H]4CCCN4)o3)nc12    1000 to 50000 nM
CCc1c(-c2ccc(OC)c(OC)c2)[nH]c2cnc(-c3nnc(C(C)(C)N)o3)nc12    1000 to 50000 nM
CCc1c(-c2ccc(OC)c(OC)c2)[nH]c2cnc(C3CCN(Cc4c[nH]cn4)CC3)nc12    100 to 1000 nM
Cc1c(-c2[nH]c3cnc(C4CCN(C5CCOCC5)CC4)nc3c2C(C)C)cn2ncnc2c1C    < 100 nM
CCc1c(-c2ccc(OC)c(OC)c2)[nH]c2ncc(C3CCN(C(=O)CN(C)C)CC3)nc12    100 to 1000 nM
COc1ccc(-c2[nH]c3cnc(C4CCNCC4)nc3c2C(C)C)cc1OC    < 100 nM
CCc1c(-c2ccc(OC)c(OC)c2)[nH]c2cnc(-c3nnc(CCCN(C)C)o3)nc12    100 to 1000 nM
COc1ccc(-c2[nH]c3cnc(C4CCN(C(=O)CN(C)C)CC4)nc3c2C(C)C)cc1OC    100 to 1000 nM
Cc1c(-c2[nH]c3cnc(C4CCN(C5COC5)CC4)nc3c2C(C)C)cn2ncnc2c1C    < 100 nM

Lab book: IC50 of CCc1c(-c2ccc(OC)c(OC)c2)[nH]c2cnc(-c3nnc([C@H]4CCNC4)o3)nc12 noted as 1000 to 50000 nM

Lab book: IC50 of Cc1cc(-c2[nH]c3cnc(C4CCN(CC(C)(C)O)CC4)nc3c2C(C)C)cn2ncnc12 noted as < 100 nM

Lab book: IC50 of Cc1cc(-c2[nH]c3cnc(C4CCN(C5CCOCC5)CC4)nc3c2C(C)C)cn(C)c1=O noted as < 100 nM

Lab book: IC50 of CCc1c(-c2ccc(OC)c(OC)c2)[nH]c2cnc(-c3nnc(C[C@H]4CCCCN4)o3)nc12 noted as 100 to 1000 nM

Lab book: IC50 of CCc1c(-c2ccc(OC)c(OC)c2)[nH]c2cnc(-c3nnc(C[C@H]4CCCN4)o3)nc12 noted as 100 to 1000 nM

Lab book: IC50 of CCc1c(-c2ccc(OC)c(OC)c2)[nH]c2cnc(C3CCN(Cc4nc(C)c[nH]4)CC3)nc12 noted as < 100 nM

Lab book: IC50 of CNC(=O)CN1CCC(c2ncc3[nH]c(-c4cc(OC)c5ncnn5c4)c(C(C)C)c3n2)CC1 noted as < 100 nM

Lab book: IC50 of Cc1cc(-c2[nH]c3cnc(C4CCN(C5CCOC5)CC4)nc3c2C(C)C)cn(C)c1=O (stereo not drawn) noted as < 100 nM

Lab book: IC50 of Cc1cc(-c2[nH]c3cnc(C4CCN(CC(=O)N(C)C)CC4)nc3c2C(C)C)cn(C)c1=O noted as < 100 nM

Lab book: IC50 of Cc1cc(-c2[nH]c3cnc(C4CCNCC4)nc3c2C(C)C)cn(C)c1=O noted as 100 to 1000 nM

Lab book: IC50 of CCc1c(-c2ccc(OC)c(OC)c2)[nH]c2nnc(C3CCN(C4CCN(C(C)C)CC4)CC3)cc12 noted as 100 to 1000 nM

###

Target: human TLR7 (Homo sapiens, UniProt Q9NYK1)
Test: TLR7 inhibition reporter assay (HEK-Blue SEAP)
Details: cells overexpressing human TLR7, SEAP reporter, stimulated with gardiquimod 7.5 μM, 22 hour incubation
IC50: recorded values

Study these solved cases before continuing.
CCc1c(-c2ccc(OC)c(OC)c2)[nH]c2cnc(-c3nnc(CCN(C)C)o3)nc12    1000 to 50000 nM
COc1cc(-c2[nH]c3cnc(C4CCN(C(=O)CN(C)C)CC4)nc3c2C(C)C)cn2ncnc12    < 100 nM

// switching to the query compound
Lab book: IC50 of Cc1cc(-c2[nH]c3cnc(C4CCN(C)CC4)nc3c2C(C)C)cn(C)c1=O noted as < 100 nM

###

Molecular target: human TLR7 (Homo sapiens)
Sequence (Q9NYK1 27-1049): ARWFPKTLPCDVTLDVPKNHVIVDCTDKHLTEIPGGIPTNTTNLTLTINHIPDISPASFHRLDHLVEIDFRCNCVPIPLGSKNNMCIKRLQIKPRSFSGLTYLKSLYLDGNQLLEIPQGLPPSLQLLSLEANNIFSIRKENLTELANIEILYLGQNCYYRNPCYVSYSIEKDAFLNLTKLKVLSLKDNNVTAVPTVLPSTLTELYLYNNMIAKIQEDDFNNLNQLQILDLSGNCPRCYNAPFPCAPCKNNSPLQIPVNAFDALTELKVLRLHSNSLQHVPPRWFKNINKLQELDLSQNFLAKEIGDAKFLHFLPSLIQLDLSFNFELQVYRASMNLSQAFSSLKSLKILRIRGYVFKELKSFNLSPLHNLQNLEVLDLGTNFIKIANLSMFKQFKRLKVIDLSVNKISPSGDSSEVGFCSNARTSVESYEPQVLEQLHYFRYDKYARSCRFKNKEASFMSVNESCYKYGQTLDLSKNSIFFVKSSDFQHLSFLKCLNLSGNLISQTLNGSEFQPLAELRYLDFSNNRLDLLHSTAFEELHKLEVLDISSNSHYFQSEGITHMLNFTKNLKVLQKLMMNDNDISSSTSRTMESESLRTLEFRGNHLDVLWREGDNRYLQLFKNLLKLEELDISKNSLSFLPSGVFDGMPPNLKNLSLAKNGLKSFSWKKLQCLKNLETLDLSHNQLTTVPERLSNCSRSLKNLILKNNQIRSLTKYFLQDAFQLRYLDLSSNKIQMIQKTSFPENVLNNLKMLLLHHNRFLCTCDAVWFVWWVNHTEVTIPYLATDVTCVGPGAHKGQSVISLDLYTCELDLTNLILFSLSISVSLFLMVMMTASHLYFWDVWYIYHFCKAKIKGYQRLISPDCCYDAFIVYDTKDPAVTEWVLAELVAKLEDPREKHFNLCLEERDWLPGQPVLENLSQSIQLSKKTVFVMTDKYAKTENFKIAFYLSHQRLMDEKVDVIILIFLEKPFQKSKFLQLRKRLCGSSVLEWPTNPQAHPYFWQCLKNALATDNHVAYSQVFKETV
Experiment: TLR7 inhibition reporter assay (HEK-Blue SEAP)
Conditions: cells overexpressing human TLR7, SEAP reporter, stimulated with gardiquimod 7.5 μM, 22 hour incubation
PARAMETER_MEASURED: IC50

Study these solved cases before continuing.
CCc1c(-c2ccc(OC)c(OC)c2)[nH]c2cnc(-c3nnc(CNC)o3)nc12 [Example 42]    1000 to 50000 nM
Cc1c(-c2[nH]c3cnc(C4CCN(CC(=O)N(C)C)CC4)nc3c2C(C)C)cn2ncnc2c1C [Example 10]    < 100 nM
CCc1c(-c2ccc(OC)c(OC)c2)[nH]c2cnc(C3CCN(CC(=O)NC)CC3)nc12 [Example 50]    100 to 1000 nM
CCc1c(-c2ccc(OC)c(OC)c2)[nH]c2cnc(C3CCN(C4CCN(C(C)C)CC4)CC3)nc12 [Example 26]    < 100 nM
CCc1c(-c2ccc(OC)c(OC)c2)[nH]c2cnc(-c3nnc(CCNC)o3)nc12 [Example 38]    1000 to 50000 nM

Lab book: IC50 of CCc1c(-c2ccc(OC)c(OC)c2)[nH]c2cnc(-c3nnc(C(C)(C)N)o3)nc12 [Example 39] noted as 1000 to 50000 nM

Lab book: IC50 of CCc1c(-c2ccc(OC)c(OC)c2)[nH]c2ncc(C3CCN(C4CCN(C(C)C)CC4)CC3)nc12 [Example 5] noted as < 100 nM

Lab book: IC50 of Cc1cc(-c2[nH]c3cnc(C4CCN(CC(=O)N(C)C)CC4)nc3c2C(C)C)cn2ncnc12 [Example 29] noted as < 100 nM

Lab book: IC50 of Cc1cc(-c2[nH]c3cnc(C4CCN(C(=O)CN(C)C)CC4)nc3c2C(C)C)cn(C)c1=O [Example 33] noted as < 100 nM

Lab book: IC50 of Cc1cc(-c2[nH]c3cnc(C4CCN(C5CCOC5)CC4)nc3c2C(C)C)cn(C)c1=O (centres unmarked) [Example 12] noted as < 100 nM

Lab book: IC50 of CCc1c(-c2ccc(OC)c(OC)c2)[nH]c2cnc(-c3nnc(C[C@H]4CCCCN4)o3)nc12 [Example 36] noted as 1000 to 50000 nM
